Procedure details: TEAD-YAP interaction inhibition, primary screen, TEAD-YAP interaction inhibitor project, luminescence, HEK-TIYL cells (AID 1259422);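 note: 0% = median of test compound wells and 100% = reference inhibitor wells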
Stated conditions: TEAD-Gal4/YAP UAS-luciferase luminescence, at 9.12 µM, active compounds read high
The whole screen tested about 640,000 compounds, of which about 9,300 (1.5%) were called active. The sample holds actives, similar compounds and a random draw of the others, so the mix is not that of the screen.

- Compound: "N#Cc1cc(-c2ccnc(Nc3ccc(-n4cnc(-c5ccccn5)n4)cc3)n2)cc(N2CCOCC2)c1"
  inhibition [%]: 43.5
- Compound: "CC1CN(CC(=O)NCc2cc(-c3ccccc3)on2)Cc2ccccc2O1 (stereo not drawn)"
  inhibition [%]: -5.63
- Compound: "CCOC(=O)c1cccc(NC(=O)COc2ccccc2Br)c1"
  inhibition [%]: 54.5
- Compound: "OC1CCN(c2ccc(Nc3nccc(-c4cc(N5CCOCC5)cc(C(F)(F)F)c4)n3)cc2)CC1"
  inhibition [%]: 31.8
- Compound: "N#Cc1cccc(-c2ccnc(Nc3ccc(N4CCOCC4)cc3)n2)c1"
  inhibition [%]: -9.11
- Compound: "O=C(Nc1ccccc1F)c1oc2cccnc2c1NC(=O)C1CC1"
  inhibition [%]: 2.6
- Compound: "C(/C=C/c1ccccc1)=Nc1ccc(N2CCOCC2)cc1"
  inhibition [%]: 18.8
- Compound: "COc1ccc(-c2cc(C(=O)N3CCCCC3)no2)cc1"
  inhibition [%]: 6.05
- Compound: "CCOc1ccc(CN2CCN(Cc3ccc(OC)c(OCC)c3)CC2)cc1"
  inhibition [%]: -0.01
- Compound: "Cc1ccc(S(=O)(=O)CCc2nnc(NC(=O)c3ccc([N+](=O)[O-])cc3)s2)cc1"
  inhibition [%]: -5.17
- Compound: "Cc1cc(NC(=O)COc2ccccc2Br)no1"
  inhibition [%]: -74.2
- Compound: "COc1ccccc1NC(=O)c1oc2cccnc2c1NC(=O)c1ccc(Cl)cc1"
  inhibition [%]: -6.82
- Compound: "COc1cccc2cc(C(=O)Nc3cccc4ccccc34)c(=N)oc12"
  inhibition [%]: -5.43

----------
Procedure details: TEAD-YAP interaction inhibition, primary screen, TEAD-YAP interaction inhibitor project, luminescence, HEK-TIYL cells (AID 1259422);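 note: 0% = median of test compound wells and 100% = reference inhibitor wells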
Stated conditions: TEAD-Gal4/YAP UAS-luciferase luminescence, at 9.12 µM
Out of some 640,000 compounds screened, about 9,300 (1.5%) were called active. No stated cut-off is given here; in the data, active means inhibition above about 32%; inactive means the rest. Many of the other results were omitted from the sample, so actives are more common in it than they were.
Classes used: active, inactive

- Compound: "COc1ccccc1CN(Cc1cc2cccc(C)c2n2nnnc12)C(=O)C1CC1"
  Qualitative label: "inactive"
- Compound: "COc1cccc(C=Nc2ccc(N)c(Cl)c2)c1O"
  Qualitative label: "inactive"
- Compound: "Ic1ccc2ncnc(NCc3ccco3)c2c1"
  Qualitative label: "inactive"
- Compound: "CCOc1ccc(NS(=O)(=O)c2ccc(Cl)cc2)cc1"
  Qualitative label: "inactive"
- Compound: "O=C(NCc1ccccc1)C1CC12CCN(C(=O)Cc1ccsc1)CC2 (stereo not drawn)"
  Qualitative label: "inactive"
- Compound: "O=C(Nc1ccc(Oc2ccccc2)cc1)c1ccc2c(=O)n(CCc3ccccc3)c(=S)[nH]c2c1"
  Qualitative label: "inactive"
- Compound: "O=C(NCCCNc1ccc([N+](=O)[O-])cc1Cl)c1ccc(Cl)cc1"
  Qualitative label: "inactive"
- Compound: "CCc1ccc(N/C(N)=N/c2nc(C)cc(C)n2)cc1"
  Qualitative label: "inactive"
- Compound: "c1coc(CNc2ncnc3ccccc23)c1"
  Qualitative label: "active"
- Compound: "CC(=O)c1c(C)oc2c1cc(NS(=O)(=O)c1ccc(C)cc1)c1ccccc12"
  Qualitative label: "active"
- Compound: "CN(Cc1ccccc1)CC(O)COc1ccc(CNCCN2CCCCC2)cc1 (stereo not drawn)"
  Qualitative label: "inactive"
- Compound: "O=C(Cc1ccsc1)N1CCC2(CC1)CC2C(=O)N1CCN(Cc2ccccc2)CC1 (stereo not drawn)"
  Qualitative label: "inactive"
- Compound: "CCOc1ccc(S(=O)(=O)Nc2cc(C)cc(C)c2)cc1"
  Qualitative label: "inactive"
- Compound: "COC(=O)c1c(C)oc2c1cc(NS(=O)(=O)c1ccc(Cl)cc1)c1ccccc12"
  Qualitative label: "inactive"
- Compound: "COc1cccc(/C=N/Nc2ncc(C(F)(F)F)cc2Cl)c1O"
  Qualitative label: "active"
- Compound: "Cc1ccc(C(=O)NCCNc2ccc([N+](=O)[O-])cc2)cc1"
  Qualitative label: "inactive"
- Compound: "Cc1ccc(S(=O)(=O)Nc2ccc3oc(C)c(C(=O)NN)c3c2)cc1"
  Qualitative label: "inactive"
- Compound: "CC(=O)c1c(C)oc2c1cc(NS(=O)(=O)c1cccc3cccnc13)c1ccccc12"
  Qualitative label: "inactive"
